- measured_target: Neuraminidase (Influenza A virus (strain A/Wilson-Smith/1933 H1N1) (Influenza A virus(strain A/WS/1933 H1N1)), UniProt P03470)
- Sequence (P03470 whole entry): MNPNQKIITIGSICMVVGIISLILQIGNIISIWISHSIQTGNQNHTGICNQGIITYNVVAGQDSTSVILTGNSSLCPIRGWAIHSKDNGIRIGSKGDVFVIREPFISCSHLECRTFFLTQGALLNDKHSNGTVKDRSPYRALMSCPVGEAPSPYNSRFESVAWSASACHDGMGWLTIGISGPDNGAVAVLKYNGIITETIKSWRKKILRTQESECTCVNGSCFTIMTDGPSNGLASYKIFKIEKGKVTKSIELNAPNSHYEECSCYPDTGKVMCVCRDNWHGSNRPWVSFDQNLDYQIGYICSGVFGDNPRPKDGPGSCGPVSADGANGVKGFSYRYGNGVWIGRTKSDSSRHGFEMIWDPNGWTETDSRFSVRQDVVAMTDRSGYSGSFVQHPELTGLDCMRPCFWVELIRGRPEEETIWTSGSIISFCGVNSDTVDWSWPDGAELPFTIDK
- method_description: Competitive inhibition of MDCK infected Influenza A virus A/WSN/33(H1N1) neuraminidase using MU-NANA as substrate preincubated for 30 mins followed by substrate addition measured after 1 hr by spectrofluorometric method
- Format: cell-based, Influenza A virus (A/WSN/1933(H1N1))

- molecule: "CC(=O)N[C@H]1C([C@H](O)[C@H](O)CO)OC(C(=O)O)=C[C@@H]1NC(=N)NC(=O)CCCCn1cc(-c2ccccc2)nn1 (some centres undefined)"
  IC50 [nM]: 169
- molecule: "CC(=O)N[C@H]1C([C@H](O)[C@H](O)CO)OC(C(=O)O)=C[C@@H]1NC(=N)NC(=O)CCCn1cc(-c2ccccc2)nn1 (some centres undefined)"
  IC50 [nM]: 238
- molecule: "CC(=O)N[C@H]1C([C@H](O)[C@H](O)CO)OC(C(=O)O)=C[C@@H]1NC(=N)NC(=O)Cn1cc(-c2ccccc2)nn1 (some centres undefined)"
  IC50 [nM]: 9.9
- molecule: "CC(=O)N[C@H]1C([C@H](O)[C@H](O)CO)OC(C(=O)O)=C[C@@H]1NC(=N)NC(=O)CCn1cc(-c2ccccc2)nn1 (some centres undefined)"
  IC50 [nM]: 146
